Reference for the values: PubChem BioAssay (NCI)

- Tested on: ACHN renal
- Experiment Notes: NCI-60 one-dose screen, 48 h (100 = growth as untreated, 0 = no growth, -100 = all killed)
- Experimental Conditions: 10 µM unless noted
About 83,000 compounds went through this panel and 20% of them were active in at least one assay; those are over-represented in the sample as a whole. The source made the active and inactive calls. How the source made its calls: active means growth percent below 10; inactive means the rest.
Parameter: growth

Solved entries:
Record summary for COCCCNc1nc(NC(=O)c2cc(OC)cc(OC)c2)cc(-c2cccnc2)n1 : reported growth = 98.2% (inactive)

So for O=C(NNc1ccc(-c2ccccc2)nn1)c1ccc(F)cc1 , the logged growth turned out to be 90.9% (inactive)

Sure, the documented growth for Cn1cc(-c2nnc(-c3cn(C)c4ncc(Br)cc34)o2)c2ccccc21 is 81.4% (inactive)

Kindly note the recorded growth for Cc1nn(-c2ccccc2)c(N2CCOCC2)c1-c1nc2ccc([N+](=O)[O-])cc2[nH]1 , which is 105% (inactive)

The reported growth of the compound CCOc1cccc2c(NC(C)CCCN(CC)CC)c(C)cnc12 (centres undefined) was 109% (inactive)

New cases:
Lab note: measured growth of CCCCCCSc1ncnc2nc[nH]c12 was 96.8% (inactive)

Record Cc1ccc(S(=O)(=O)Nc2ccccc2)cc1N . Reported growth: 101% (inactive)
